Test system: RXF 393
Experimental Protocol: NCI tumour cell line growth inhibition, 48 h
Active and inactive are the calls of the source. Cut-off read from the data, not from the text of the source: active = GI50 up to about 1.1 µM and inactive = higher.
Readout Type: GI50

These recorded examples may help you get a feel for the data.
1. CN(C)c1ccc(/C=C2\C[C@H]3[C@@H]4CCc5cc(O)ccc5[C@H]4CC[C@]3(C)C2=O)cc1 ... 48.5 µM (inactive)
2. O=C(CCCC(=O)Nc1ccc(Cl)cc1Cl)CC(=O)c1ccc2ccccc2c1 ... 10.8 µM (inactive)
3. OC(c1ccccc1)(c1ccccc1)c1ccccn1 ... > 100 µM (inactive)

Let me know recorded GI50 for O=C1/C(=C/c2ccc(Cl)cc2)CCC1CCN1CCOCC1 (configuration not stated) , thanks.
47.9 µM (inactive)

Let me know recorded GI50 for COC(=O)C1CCC(=O)N1CN(C(C)=O)c1ccccc1Cl (configuration not stated) , thanks.
> 100 µM (inactive)

Let me know recorded GI50 for O=c1nc(-c2ccccc2)c2c3c(cccn13)CCC2 , thanks.
> 100 µM (inactive)

Let me know recorded GI50 for CN1CC2(CCCCC2)C(O)C12C=CCCC2 (configuration not stated) , thanks.
> 100 µM (inactive)

Let me know recorded GI50 for C=C1CC2(CCCC3(CC(=C)C(=O)O3)C2(C)C)OC1=O (configuration not stated) , thanks.
3.86 µM (inactive)

Let me know recorded GI50 for CCNc1cc2c(cc1O)CC[C@@H]1[C@@H]2CC[C@]2(C)[C@@H](O)CC[C@@H]12 , thanks.
3.53 µM (inactive)

Let me know recorded GI50 for C/C=C1/CCC2c3[nH]c4ccccc4c3CCN2C1 (configuration not stated) , thanks.
> 100 µM (inactive)

Let me know recorded GI50 for CCOC(=O)NC(=O)c1cn(CCOC(=O)NCCCCCCNC(=O)OCCn2cc(C(=O)NC(=O)OCC)c(=O)[nH]c2=O)c(=O)[nH]c1=O , thanks.
> 100 µM (inactive)

Let me know recorded GI50 for CC(=O)N1C(Nc2cccc3nc(C)ccc23)CCN1c1ccccc1 (configuration not stated) , thanks.
> 10 µM (inactive)

Let me know recorded GI50 for C[C@@]12C[C@@H](c3ccccc3O1)N1CCCCSC1=N2 , thanks.
> 100 µM (inactive)

Let me know recorded GI50 for C1=Cc2nccc3cc4c(c(c23)N1)OCO4 , thanks.
1.64 µM (inactive)

---

Test system: UO-31
Experimental Protocol: NCI tumour cell line growth inhibition, 48 h
Calls of active or inactive are those of the source. Rule as the data show it: active = GI50 up to about 1.1 µM and inactive = higher.
Readout Type: GI50

Let me know recorded GI50 for NC(=O)C(C(N)=O)=C(O)/C(O)=C/C(=O)c1ccccc1 , thanks.
> 100 µM (inactive)

Let me know recorded GI50 for COc1cc(OC)nc(NC(=O)NS(=O)(=O)c2cccc3ncn(C)c(=O)c23)n1 , thanks.
> 100 µM (inactive)

Let me know recorded GI50 for O=c1[nH]c(N/N=C\C(=N/Nc2nc3ccccc3c(=O)[nH]2)C(O)C(O)C(O)CO)nc2ccccc12 (stereo unspecified) , thanks.
> 100 µM (inactive)

Let me know recorded GI50 for O=C(O)C[S+]([O-])c1ccc2c3c(cccc13)C(=O)c1ccccc1-2 (stereo unspecified) , thanks.
> 100 µM (inactive)

Let me know recorded GI50 for O=[N+]([O-])C=C1c2ccccc2-c2ccccc21 , thanks.
15.2 µM (inactive)

Let me know recorded GI50 for C=C(Br)C/N=C/N(C)C , thanks.
> 100 µM (inactive)

Source: ChEMBL document CHEMBL1201862
